# Tested on: Salmonella typhimurium (Gram−)
# assay-info: Minimum inhibitory concentration (MIC) study of quaternary ammonium biocides
# Assay type: cell-based
# condition-label: unit assumed
MIC S. typhimurium (Gram−) overview

chemical-smiles	result-modifier	MIC S. typhimurium (Gram−) (µg/mL)
CCCCCCCC[N+](C)(C)CCOCCOCCOCCOC.[Cl-]	=	2.5
CCCCCC[N+](C)(C)CCOCCOC.[Br-]	>	5
CCCCCC[N+](C)(C)CCOCCO.[Cl-]	>	5
CCCCCC[N+](C)(C)CCOC.[Br-]	=	2.5
CCCCCC[N+](C)(C)CCOCCOCCOC.[Cl-]	>	5
CCCCCCCC[N+](C)(C)CCOCCOCCOC.[Cl-]	=	2.5

---

# System: B. anthracis Sterne strain (Gram+)
# Assay type: cell-based, Bacillus anthracis Sterne strain
# condition-label: unit assumed
The following compounds are listed with their measured MIC B. anthracis (Gram+) values.
measurement-label: MIC B. anthracis (Gram+) (µg/mL)

chemical-smiles	measurement-label	result-modifier	value-observed
CCCCCC[N+](C)(C)CCOC.[Br-]	MIC B. anthracis (Gram+)	=	5
CCCCCC[N+](C)(C)CCOCCOC.[Br-]	MIC B. anthracis (Gram+)	>	5
CCCCCC[N+](C)(C)CCOCCOCCOCCOC.[Cl-]	MIC B. anthracis (Gram+)	=	5
CCCCCCCC[N+](C)(C)CCOCCOC.[Cl-]	MIC B. anthracis (Gram+)	=	1.25

---

# Tested on: Escherichia coli (Gram−)
# assay-info: Minimum inhibitory concentration (MIC) study of quaternary ammonium biocides
# Format: cell-based
# condition-label: unit assumed
measurement-label: MIC E. coli (Gram−) (µg/mL)

molecule	value-observed
CCCCCCCC[N+](C)(C)CCOCCOCCOC.[Cl-] [Entry 7]	2.5
CCCCCC[N+](C)(C)CCOCCO.[Cl-] [Entry 10]	5
CCCCCCCC[N+](C)(C)CCOCCO.[Cl-] [Entry 9]	5
CCCCCCCC[N+](C)(C)CCOCCOC.[Cl-] [Entry 6]	2.5
CCCCCC[N+](C)(C)CCOCCOC.[Br-] [Entry 2]	2.5
CCCCCC[N+](C)(C)CCOCCOCCOCCOC.[Cl-] [Entry 4]	2.5
CCCCCC[N+](C)(C)CCOC.[Br-] [Entry 1]	2.5
CCCCCCCC[N+](C)(C)CCOC.[Cl-] [Entry 5]	0.625
CCCCCC[N+](C)(C)CCOCCOCCOC.[Cl-] [Entry 3]	2.5
CCCCCCCC[N+](C)(C)CCOCCOCCOCCOC.[Cl-] [Entry 8]	1.25

---

Quick list: log10(MIC S. aureus (Gram+)) per entry.
# Tested on: S. aureus (Gram+)
# assay-info: Minimum inhibitory concentration (MIC) study of quaternary ammonium biocides
# Assay type: cell-based, Staphylococcus aureus
# condition-label: unit assumed
measurement-label: log10(MIC S. aureus (Gram+)) (log10 of the value in µg/mL)

compound	test-system	measurement-label	value-observed
CCCCCCCC[N+](C)(C)CCOC.[Cl-] [Entry 5]	S. aureus (Gram+)	log10(MIC S. aureus (Gram+))	-0.74
CCCCCCCC[N+](C)(C)CCOCCOCCOC.[Cl-] [Entry 7]	S. aureus (Gram+)	log10(MIC S. aureus (Gram+))	-0.30
CCCCCCCC[N+](C)(C)CCOCCOCCOCCOC.[Cl-] [Entry 8]	S. aureus (Gram+)	log10(MIC S. aureus (Gram+))	-0.10
CCCCCC[N+](C)(C)CCOCCOCCOCCOC.[Cl-] [Entry 4]	S. aureus (Gram+)	log10(MIC S. aureus (Gram+))	0.40
CCCCCCCC[N+](C)(C)CCOCCOC.[Cl-] [Entry 6]	S. aureus (Gram+)	log10(MIC S. aureus (Gram+))	-0.51
CCCCCC[N+](C)(C)CCOC.[Br-] [Entry 1]	S. aureus (Gram+)	log10(MIC S. aureus (Gram+))	0.40
CCCCCCCC[N+](C)(C)CCOCCO.[Cl-] [Entry 9]	S. aureus (Gram+)	log10(MIC S. aureus (Gram+))	0.10

---

# System: Salmonella typhimurium (Gram−)
# assay-info: Minimum inhibitory concentration (MIC) study of quaternary ammonium biocides
# Type: cell-based
# condition-label: unit assumed
Catalogue of molecules with associated MIC S. typhimurium (Gram−)

chemical-smiles	test-system	MIC S. typhimurium (Gram−) [µg/mL]
CCCCCCCC[N+](C)(C)CCOCCO.[Cl-]	Salmonella typhimurium (Gram−)	5
CCCCCCCC[N+](C)(C)CCOC.[Cl-]	Salmonella typhimurium (Gram−)	2.5
CCCCCCCC[N+](C)(C)CCOCCOC.[Cl-]	Salmonella typhimurium (Gram−)	5
CCCCCC[N+](C)(C)CCOCCOCCOCCOC.[Cl-]	Salmonella typhimurium (Gram−)	5

---

Each item that follows carries a reported MIC B. anthracis (Gram+).
# Tested on: B. anthracis Sterne strain (Gram+)
# Format: cell-based, Bacillus anthracis Sterne strain
# condition-label: unit assumed

chemical-smiles	result-modifier	MIC B. anthracis (Gram+) (µg/mL)
CCCCCCCC[N+](C)(C)CCOCCOCCOC.[Cl-]	=	0.625
CCCCCC[N+](C)(C)CCOCCO.[Cl-]	>	5
CCCCCCCC[N+](C)(C)CCOCCOCCOCCOC.[Cl-]	=	0.312
CCCCCCCC[N+](C)(C)CCOC.[Cl-]	<	0.312
CCCCCC[N+](C)(C)CCOCCOCCOC.[Cl-]	=	2.5
CCCCCCCC[N+](C)(C)CCOCCO.[Cl-]	=	1.25

---

Reported MIC S. aureus (Gram+) values for a set of molecules
# Test system: S. aureus (Gram+)
# assay-info: Minimum inhibitory concentration (MIC) study of quaternary ammonium biocides
# Assay type: cell-based, Staphylococcus aureus
# condition-label: unit assumed

chemical-smiles	MIC S. aureus (Gram+)
CCCCCC[N+](C)(C)CCOCCOC.[Br-]	> 5 µg/mL
CCCCCC[N+](C)(C)CCOCCO.[Cl-]	> 5 µg/mL
CCCCCC[N+](C)(C)CCOCCOCCOC.[Cl-]	> 5 µg/mL

The measurements presented in this section are drawn from patent US7452951B2.
